Data provenance is patent US20200102347A1.

Below, each entry is listed alongside its reported Kd.
# Target desc: T1, NativeRPtag(large)_with_Tags_and_Cys (Thermoanaerobacter tengcongensis)
# T1 construct: Unlabeled in anisotropy assays; coupled through the engineered N-terminal Cys to SulfoLink agarose or maleimide plates in column, pull-down and ELISA assays
# T1 chain: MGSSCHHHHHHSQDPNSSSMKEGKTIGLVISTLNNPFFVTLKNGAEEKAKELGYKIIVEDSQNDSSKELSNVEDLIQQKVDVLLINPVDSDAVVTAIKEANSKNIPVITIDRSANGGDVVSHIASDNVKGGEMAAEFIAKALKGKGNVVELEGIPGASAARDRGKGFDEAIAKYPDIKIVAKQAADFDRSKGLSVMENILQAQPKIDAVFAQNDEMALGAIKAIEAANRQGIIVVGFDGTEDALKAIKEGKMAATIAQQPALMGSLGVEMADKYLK
# Measurement protocol: fluorescence anisotropy; MeOH (20%)
No end group written: not given here. *: point of attachment. RhodamineB = CCN(CC)c1ccc2c(-c3ccccc3C(=O)*)c3ccc(=[N+](CC)CC)cc-3oc2c1
Just the number please, in nM, no unit attached.

• RhodamineB-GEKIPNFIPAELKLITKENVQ (Synthetic peptide) [native RPtag(small)] = 0.11

Ask: Suppose we examine the binder RhodamineB-KIANFIPAELKLITKANVQ (also: also used unlabeled as competitor, Rhodamine labeled in the Kd assays; also called RPtag(small) (tight)) [RPtag(small) Nd2, p5a, e18a] ; what Kd value has been reported?
Result: 0.056
